# growth per record follows
- System: HCT-116 colon
- protocol_description: NCI-60 one-dose screen, 48 h (100 = growth as untreated, 0 = no growth, -100 = all killed)
- protocol_conditions: 10 µM unless noted
The panel holds about 83,000 compounds, 20% with a hit somewhere; the sample as a whole holds those more often.
Hi! Could you send only the number? It should be in %, unit omitted.

Field: example entries. Status: answers known.
CCNCCNc1cc(-c2ccc(C(F)(F)F)cc2)c(C#N)c2nc3ccccc3n12 = -95.4
CS(=O)(=O)Nc1cc(-c2ccc3ncnc(Nc4ccc5c(cnn5Cc5ccc(F)cc5)c4)c3c2)cnc1Cl = 57
N#CC1=C(N)Oc2c(sc3c(Br)cccc23)C1c1ccc(Cl)cc1 (centres undefined) = 13.7

Field: next compound
Noted for "CNc1nnc2n(-c3ccccc3)c(=O)c3cnn(-c4ccccc4)c3n12" : its growth reads 77.7

###

- System: HCC-2998 colon
- protocol_description: NCI-60 one-dose screen, 48 h
- protocol_conditions: 10 µM unless noted
- Protocol: Growth inhibition of the HCC-2998 human tumor cell line is measured as a screen for anti-cancer activity. Cells are grown in 96 well plates and exposed to the test compound for 48 hours. Compounds are tested at a single concentration, which is 10^-5 M for most compounds. The reported endpoint is percent growth (GI% or GIPRCNT), where numbers from 0 - 100% represent growth inhibition, and numbers from -100% - 0 represent cell death. For example, a value of 40 represents 60% growth inhibition. […]
About 83,000 compounds went through this panel and 20% of them were active in at least one assay; those are over-represented in the sample as a whole. Active and inactive are the calls of the source. The calls were made as follows: active = growth percent below 10; inactive = the rest.
Lab note: assign the record to one of true for active, false for inactive

Answered examples (3):
COc1cc2c(c(OC)c1OC)CCC(c1cccc(C(=O)Nc3ccc(C#N)cc3)c1)O2 (stereo not drawn) = false
CCOC(=O)c1c(C(=O)c2cn(C)c3ccc(Br)cc23)c(-c2cn(C)c3ccc(Br)cc23)n(NC(=O)OC(C)(C)C)c1C = false
O=CN1N=C(c2cccc(Nc3ccnc4cc(Cl)ccc34)c2)CC1c1ccccc1 (stereo not drawn) = false

Call for entry Clc1ccc2c(NC3CCC(N4CCOCC4)CC3)ccnc2c1 (stereo not drawn) : false

Call for entry "Nc1nc(N)c(-c2ccc(Cl)c(Cl)c2)c(CBr)n1" : false

Call for entry "c1csc(-c2ccc(CNc3c4ccccc4nc4ccccc34)cc2)c1" : true

Call for entry "COc1ccc(-c2nn(-c3cccc(Cl)c3)cc2-c2cc(-c3ccc(Br)cc3)nc(N)n2)cc1" : false

Call for entry "CC(C)c1ccc(C(=O)Nc2nc3ccc(O)c(CN(C)C)c3s2)cc1" : false

Call for entry CC1(C)CC(=O)C2=C(C1)N(c1ccc(OC(F)(F)F)cc1)C(N)=C(C#N)C2c1ccc(Br)cc1F (stereo not drawn) : false

Call for entry CCCCCCC12CCC(=O)N1CCc1cncn12 (stereo not drawn) : false

Call for entry "c1cc2c(ccc3[nH]c(-c4ccc5[nH]ncc5c4)c4c(c32)CCCC4)n1" : false

Call for entry "Cc1ccc(C[P+](c2ccccc2)(c2ccccc2)c2ccccc2)cc1" : true

Call for entry "Nc1ncnc2c1c(-c1cccc(Cl)c1)nn2CC(=O)N1CCOCC1" : false

Call for entry "Cc1ccccc1/C=C/C(=O)c1cccc(OCCCCOc2cccc(C(=O)/C=C/c3ccccc3C)c2)c1" : false

Call for entry "Cc1cc(C(=O)O)c(C)n1-c1cccc(C(=O)O)c1" : false

Call for entry "O=C(CN1C(=O)S/C(=C\C(Cl)=C\c2ccccc2)C1=O)NCCc1ccc(O)cc1" : false

Call for entry "Cc1ccc(NC(=O)Cn2cc(CN3CCN(c4ccnc5cc(Cl)ccc45)CC3)nn2)cc1" : false

Call for entry "CCOC(=O)c1cc(C)n(-c2ccc(C(=O)O)cc2)c1C" : false

###

- System: UACC-62 melanoma
- protocol_description: NCI-60 one-dose screen, 48 h (100 = growth as untreated, 0 = no growth, -100 = all killed)
- protocol_conditions: 10 µM unless noted
Compounds without any hit were thinned out: in the full panel of roughly 83,000, 20% have a hit. Active and inactive are the calls of the source. The calls were made as follows: active = growth percent below 10; inactive = the rest.
measured_metric: growth

Field: example entries. Status: answers known.
C/C(Cc1ccc(Cl)cc1)=C(\c1ccc(O)cc1)c1ccc(Cl)cc1 = 84.6% (inactive)
O=C1NC(=O)C(Cc2ccc(OCc3ccc(-c4ccc(Cl)cc4Cl)cc3)cc2)S1 (stereo not drawn) = 41.9% (inactive)
O=C(Nc1ccccc1)Nc1ncnc2c1ncn2-c1ccc(Cl)cc1 = 89.3% (inactive)
O=C1C(Cl)=C(Nc2ccc(S(=O)(=O)N3CCOCC3)cc2)C(=O)c2ccccc21 = 29.7% (inactive)
CCN(CC)c1ccc(\C=N/N=C(N)/C(N)=N\N=C/c2ccc(N(CC)CC)cc2)cc1 = 104% (inactive)
CCCCCN1C(=O)/C(=c2\sc3n(c2=O)C2C(NN=3)N(CC)C(=O)N2CC)c2ccccc21 (stereo not drawn) = 10.7% (inactive)
CN1CCN(c2cc(Nc3cc(C4CC4)[nH]n3)nc(Nc3ccc(CC(=O)NCc4cccc(F)c4)cc3)n2)CC1 = 32.7% (inactive)
COC1=CC(c2ccc[nH]2)=N/C1=C\c1[nH]c(C)c(CC(=O)OCc2ccccc2)c1CCC(=O)OCc1ccccc1 = -69.7% (active)
CCCCCCCCCc1ccc(OCCOCCOCCOCCOCCOCCOCCOCCOCCO)cc1 = 11.7% (inactive)
O=C(N/N=C/c1c(Cl)cccc1Cl)c1cccnc1Nc1cccc(C(F)(F)F)c1 = 17.2% (inactive)

Noted for COc1ccc(/C=N/C2=C(C#N)C(c3ccccc3)c3ccc4ccccc4c3O2)cc1 (stereo not drawn) : its growth reads 15.8% (inactive)

Noted for "COc1cc(-c2csc(NC(=O)c3ccc(N4CCOCC4)c(C(F)(F)F)c3)n2)cc(OC)c1OC" : its growth reads -6.31% (active)

Noted for "COC(=O)c1nc(-c2ccccc2)oc1S(=O)(=O)Cc1ccccc1" : its growth reads 91.1% (inactive)

###

- Test system: ACHN renal
- protocol_description: NCI-60 one-dose screen, 48 h (100 = growth as untreated, 0 = no growth, -100 = all killed)
- protocol_conditions: 10 µM unless noted
Compounds without any hit were thinned out: in the full panel of roughly 83,000, 20% have a hit.
measured_metric: growth (%)
Hi! Could you send only the number? It should be in %, unit omitted.

Field: example entries. Status: answers known.
O=C(Nc1ccccc1O)c1ccc(CNC(=O)c2sccc2Nc2ccnc(C(F)(F)F)c2)cc1 = 49.3
O=C(O)c1ccc(-n2cc(/C=N/Nc3ccccc3)c(-c3ccc(F)cc3F)n2)cc1 = 47.1

Field: next compound
Noted for "O=c1[nH]c(-c2ccccc2)nc2sc3cc(O)ccc3c12" : its growth reads 76.2

###

- Test system: NCI-H322M lung
- protocol_description: NCI-60 one-dose screen, 48 h
- protocol_conditions: 10 µM unless noted
The panel holds about 83,000 compounds, 20% with a hit somewhere; the sample as a whole holds those more often. Activity calls are given as the source filed them. Rule for the calls: active = growth percent below 10; inactive = the rest.
Lab note: assign the record to one of active, inactive

Answered examples (2):
N=C(N)c1ccc(-c2ccc(-c3ccc(Cl)c(Cl)c3)s2)nc1 = active
N#CC1=C(N)Oc2c(sc3c(Br)cccc23)C1c1ccc(Cl)cc1 (configuration not stated) = inactive

Call for entry "CCC(=O)Oc1ccc(-c2ccccc2)cc1Br" : inactive

Call for entry "COc1ccccc1CNc1c2ccccc2nc2ccccc12" : inactive

Call for entry "COc1ccc(-c2nn(-c3cccc(Cl)c3)cc2-c2cc(-c3ccc(Br)cc3)nc(N)n2)cc1" : inactive

Call for entry "CCOC(=O)c1cc2c(n1C)-c1nc(NC(C)=O)sc1CCC2" : inactive

Call for entry "COC(=O)/C=C1/SC(=Nc2cccc(OC)c2)N(CCc2c[nH]c3ccc(O)cc23)C1=O" : inactive

###

- Tested on: SR leukemia
- protocol_description: NCI-60 one-dose screen, 48 h (100 = growth as untreated, 0 = no growth, -100 = all killed)
- protocol_conditions: 10 µM unless noted
About 83,000 compounds went through this panel and 20% of them were active in at least one assay; those are over-represented in the sample as a whole.
measured_metric: growth (%)
Hi! Could you send only the number? It should be in %, unit omitted.

Field: example entries. Status: answers known.
COc1cc(OC)c(NC(=O)c2cc3ccccc3cc2O)cc1Cl = 82.6
C#Cc1c2c(c(OC)c3c1OCO3)[C@H]([C@H]1OC(=O)c3c1ccc(OC)c3OC)N(C)CC2 = 9.19
N#Cc1nc(-c2ccc(Cl)cc2)oc1S(=O)(=O)N1CCN(c2ccc(F)cc2)CC1 = 23.9
Cn1cc(-c2nonc2-c2cn(C)c3ccccc23)c2ccccc21 = 16
N#CSc1c[nH]c2cccc(/C=C/C(=O)/C=C(/C=C/c3cccc4[nH]cc(SC#N)c34)OB(F)F)c12 = 6.43
COc1ccc2c(c1)c(-c1nc(-c3c[nH]c4ccncc34)cs1)cn2C = -26
O=C(Nc1ccccc1O)c1ccc(CNC(=O)c2sccc2Nc2ccnc(C(F)(F)F)c2)cc1 = 36.2
COC12C=C/C(=C(/C(=O)OCc3ccncn3)C(=O)CCCCCCCCC3(OC)C=C/C(=C(/C(=O)OCc4ccncn4)C(=O)CCCCCCCC1)O3)O2 = -15.6

Noted for "CCOC(=O)C#Cc1c(C(=O)OCC)nnn1Cc1ccc([N+](=O)[O-])cc1" : its growth reads -10.7

Noted for "O=c1c2cccc3c(N4CCCC4)ccc(c32)c2nc3ccccc3n12" : its growth reads 20.2

Noted for "Cc1cc(=O)n(C(=O)Nc2ccccc2Cl)c2cc(O)ccc12" : its growth reads 112

Noted for "CC/C(=C(/c1ccc(Cl)cc1)c1ccc(OCCN(C)C)cc1)c1ccc(Cl)cc1" : its growth reads -6.88

Noted for "COC1=CC(c2ccc[nH]2)=N/C1=C\c1[nH]c(C)c(C)c1CCC(=O)OCc1ccccc1" : its growth reads -47.1
